# protocolDescription: Experiment 2: femoral vein samples of rats after IV Parent Compound A
# Format: in vivo, female Sprague Dawley rats
# testParameters: female, Sprague-Dawley, rat, plasma (femoral vein); Parent Cmpd. A 2.5 mg/kg IV, Femoral Vein; median
reportedProperty: AUC(0-inf) (ng·h/mL)
Write the number in ng·h/mL without appending the unit.

query: Query: AUC(0-inf); subject: O=C(NCc1cccnc1)Nc1ccc(OCCc2ccccc2-c2ccccc2)cc1 [Parent Compound A]
result: 1460

###

# protocolDescription: Experiment 1: hepatic portal vein samples of rats after oral Example Compound 35
# Format: in vivo, female Sprague-Dawley rats
# testParameters: female, Sprague-Dawley, rat, plasma (hepatic portal vein), po, 20 mg/kg, portal vein, 0.25 hr after oral Example Compound 35 20 mg/kg; read-out: Median [Par. Cmp. A]
reportedProperty: concentration at 0.25 h (ng/mL)
Write the number in ng/mL without appending the unit.

query: Query: concentration at 0.25 h; subject: "O=C(NCc1cccnc1)Nc1ccc(OCCc2ccccc2-c2ccccc2)cc1"
result: 961

###

# protocolDescription: Experiment 1: hepatic portal vein samples of rats after oral Example Compound 35
# Assay type: in vivo, female Sprague-Dawley rats
# testParameters: female, Sprague-Dawley, rat, plasma (hepatic portal vein), po, 20 mg/kg, portal vein, 1 hr after oral Example Compound 35 20 mg/kg; individual rats; * = below the quantitation limit of 1 ng/mL; read-out: [Ex. Cmp. 35]
reportedProperty: concentration at 1 h (ng/mL)
Write the number in ng/mL without appending the unit.

query: Query: concentration at 1 h; subject: "O=C(NCc1ccc[n+](COC(=O)c2ccccc2)c1)Nc1ccc(OCCc2ccccc2-c2ccccc2)cc1"
result: 0.24

###

# protocolDescription: Experiment 1: hepatic portal vein samples of rats after oral Example Compound 35
# Assay type: in vivo, female Sprague-Dawley rats
# testParameters: female, Sprague-Dawley, rat, plasma (hepatic portal vein), po, 20 mg/kg, portal vein, 1 hr after oral Example Compound 35 20 mg/kg; read-out: Median [Par. Cmp. A]
reportedProperty: concentration at 1 h (ng/mL)
Write the number in ng/mL without appending the unit.

query: Query: concentration at 1 h; subject: "O=C(NCc1cccnc1)Nc1ccc(OCCc2ccccc2-c2ccccc2)cc1"
result: 2460

###

# protocolDescription: Experiment 1: hepatic portal vein samples of rats after oral Example Compound 35
# Type: in vivo, female Sprague-Dawley rats
# testParameters: female, Sprague-Dawley, rat, plasma (hepatic portal vein), po, 20 mg/kg, portal vein, 2 hr after oral Example Compound 35 20 mg/kg; individual rats; * = below the quantitation limit of 1 ng/mL; read-out: [Ex. Cmp. 35]
reportedProperty: concentration at 2 h (ng/mL)
Write the number in ng/mL without appending the unit.

query: Query: concentration at 2 h; subject: "O=C(NCc1ccc[n+](COC(=O)c2ccccc2)c1)Nc1ccc(OCCc2ccccc2-c2ccccc2)cc1"
result: 0.15
